Values from ChEMBL document CHEMBL4382248

- TGT: Adenylate cyclase type 8 (Homo sapiens)
- Sequence (P40145 whole entry): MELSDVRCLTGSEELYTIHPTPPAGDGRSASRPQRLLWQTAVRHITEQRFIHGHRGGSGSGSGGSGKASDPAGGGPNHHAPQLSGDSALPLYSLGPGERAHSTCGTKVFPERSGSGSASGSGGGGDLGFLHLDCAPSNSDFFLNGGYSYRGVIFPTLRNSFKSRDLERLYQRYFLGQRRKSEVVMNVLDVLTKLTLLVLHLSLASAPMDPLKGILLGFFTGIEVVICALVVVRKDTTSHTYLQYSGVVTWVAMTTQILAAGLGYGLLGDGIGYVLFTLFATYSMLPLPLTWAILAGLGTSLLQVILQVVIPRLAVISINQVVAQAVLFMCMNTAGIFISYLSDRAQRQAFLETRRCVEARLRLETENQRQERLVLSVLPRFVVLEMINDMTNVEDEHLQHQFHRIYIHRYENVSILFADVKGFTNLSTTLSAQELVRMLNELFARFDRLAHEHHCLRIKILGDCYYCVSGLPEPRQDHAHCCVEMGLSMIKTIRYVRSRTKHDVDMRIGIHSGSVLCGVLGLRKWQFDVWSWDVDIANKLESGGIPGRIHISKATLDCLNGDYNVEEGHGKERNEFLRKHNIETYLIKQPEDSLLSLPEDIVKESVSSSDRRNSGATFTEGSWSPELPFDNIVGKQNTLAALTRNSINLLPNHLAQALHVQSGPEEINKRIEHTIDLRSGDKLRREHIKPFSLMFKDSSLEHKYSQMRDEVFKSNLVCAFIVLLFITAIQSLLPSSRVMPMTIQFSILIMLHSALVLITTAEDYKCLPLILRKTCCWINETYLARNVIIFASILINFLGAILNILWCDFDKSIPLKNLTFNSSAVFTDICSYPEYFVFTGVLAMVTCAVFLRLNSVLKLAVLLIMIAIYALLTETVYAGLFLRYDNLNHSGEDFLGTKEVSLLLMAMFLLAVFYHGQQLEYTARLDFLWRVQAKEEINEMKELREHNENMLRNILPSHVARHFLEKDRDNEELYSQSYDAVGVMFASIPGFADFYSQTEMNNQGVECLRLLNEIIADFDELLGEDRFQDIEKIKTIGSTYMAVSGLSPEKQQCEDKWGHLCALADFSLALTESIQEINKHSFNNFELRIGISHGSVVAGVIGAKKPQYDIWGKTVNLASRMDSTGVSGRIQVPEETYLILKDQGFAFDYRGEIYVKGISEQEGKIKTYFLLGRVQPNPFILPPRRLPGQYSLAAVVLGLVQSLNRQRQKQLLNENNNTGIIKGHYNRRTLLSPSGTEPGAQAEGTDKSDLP
- TEST NAME: Inhibition of human AC8 expressed in HEK293 cells assessed as decrease in A23187-stimulated cAMP accumulation at 30 uM preincubated for 30 mins followed by A23187 stimulation and measured after 1 hr by fluorescence assay relative to control
- Assay type: cell-based
Measured inhibition, listed per entry for reference.
Write the number in % without appending the unit.

Some solved cases for reference:
ENTRY SMILES: CCc1ccc(C(=O)Nc2nnc(-c3ccc(F)cc3)o2)cc1
inhibition / %: 32

ENTRY SMILES: O=C(Nc1nnc(-c2ccc(F)cc2)o1)c1cccc(F)c1
inhibition / %: 35

Reported inhibition for CC(C)Oc1ccc(C(=O)Nc2nnc(-c3ccccc3)o2)cc1 was 43

// inhibition value for CSc1cccc(C(=O)Nc2nnc(-c3ccc4c(c3)OCCO4)o2)c1 : 37

// inhibition value for O=C(Nc1nnc(-c2ccc(F)cc2)o1)c1ccccc1F : 13
